- Experiment Summary: recombinant barcode read abundance after kanamycin selection (control-corrected) (log10(CPM+1)); higher = more efficient recombination; sequences stand for … in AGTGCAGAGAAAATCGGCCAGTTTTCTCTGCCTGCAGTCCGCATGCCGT…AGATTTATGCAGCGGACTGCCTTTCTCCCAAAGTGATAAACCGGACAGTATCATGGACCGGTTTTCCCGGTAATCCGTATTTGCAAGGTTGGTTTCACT; site = the 11-nt target;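 further: IS621 recombinase and bridge RNA in Escherichia coli cells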
Metric Name: recombinant barcode read abundance (log10)
Lab note: write the figure by itself, no unit.

Give the measured recombinant barcode read abundance (log10) of CCAAGTACTTGGGTTCTAACCTGTTGCTT (site CCAAGTACTAA) .
0.387

Field entry: ACTAGGACTTGGGTTCTAACCTGTTGCGA (site ACTAGGACTAC)
0.0787

Field entry: ACCGAGGCTTGGGTTCTAACCTGTTGCCT (site AACGACGCTAG)
0.193

Field entry: ATCTTATCTTGGGTTCTAACCTGTTGCCT (site ATCTTATCTAG)
0.208

Field entry: GGCCGGACTTGGGTTCTAACCTGTTGCCT (site GGCCGGGCTAG)
0.112
